System: Plasmodium berghei
Assay: Screen against P. berghei liver stage (PbLuc), transformed with Luciferase, at 10uM
Format: functional, HepG2
Settings: tested at 10 uM
Screen size: about 69,000 compounds; about 8,600 (12%) showed an effect of 50% or more. The full list was thinned out, with strong results kept by preference.
Exam item: assign label 1 to entries whose INHIBITION is below 20% and label 0 to entries at or above 20%. Note that a value of exactly 20% receives label 0.

compound	measured on	category label
CC(=O)N1[C@@H](C(=O)NCC2CC2)C[C@@H]2CN(Cc3ccco3)C[C@@H]21	Plasmodium berghei	label 1
CN(CCS(=O)(=O)c1cc(Cl)ccc1Cl)CC(=O)Nc1cccc(F)c1	Plasmodium berghei	label 0
Cc1ccc(N2CCCC(NCc3nnc4n3CCCC4)C2=O)cc1 (stereo unspecified)	Plasmodium berghei	label 1
CNC(=O)N1CC[C@@H]2CN(Cc3ccccc3)S(=O)(=O)[C@@H]2CC1	Plasmodium berghei	label 0
CCn1cc2c(n1)CN(C(=O)c1ccncc1)CC2COCC1CC1 (stereo unspecified)	Plasmodium berghei	label 1
CCn1cc2c(n1)CN(CC1CC1)CC2COCC1CC1 (stereo unspecified)	Plasmodium berghei	label 1
Cc1noc(C2CCC3(CCN(C(=O)C4CCOCC4)CC3)O2)n1 (stereo unspecified)	Plasmodium berghei	label 0
CN(CCS(=O)(=O)c1cc(Cl)ccc1Cl)CC(N)=O	Plasmodium berghei	label 1
CN(CCS(=O)(=O)c1cc(Cl)ccc1Cl)CC(=O)Nc1ccc(F)cc1	Plasmodium berghei	label 1
CCn1cc2c(n1)CN(Cc1nccs1)CC2COCC1CC1 (stereo unspecified)	Plasmodium berghei	label 0
Cn1nc(COCC2CC2)c2c1CN(C(=O)c1ccno1)CC2	Plasmodium berghei	label 1
